From: patent US9682938B2

assay: In vitro plasma stability, human plasma; assay type: in vitro ADME; details: male, pH 7.4, 5 μM, 37° C., sampling 0-360 minutes, read-out: T1/2 Human
test_readout: half-life at 5 μM (min)
Hi! Could you send only the number? It should be in min, unit omitted.

Would you please look over these solved cases?
molecule	half-life at 5 μM [min]
CO/N=C(\C)C1(NO)C(=O)N(C)N=C1C(C)(C)C (centres unmarked) [Compound 10]	12
CC1=NN(C)C(=O)C1(NO)c1ccccc1 (centres unmarked) [Compound 6]	38
CN1N=C(c2ccc(OC(F)(F)F)cc2)C(C)(NO)C1=O (centres unmarked) [Compound 59]	77
CN1N=C(c2cccc(C(F)(F)F)c2)C(C)(NO)C1=O (centres unmarked) [Compound 22]	55

Recorded half-life at 5 μM (molecule CN(C)C(=O)c1ccc(C2=NN(C)C(=O)C2(C)NO)cc1 (centres unmarked) [Compound 84] ): 89

----------
assay: In vitro plasma stability, human plasma; format: in vitro ADME; details: male, pH 7.4, 5 μM, 37° C., sampling 0-360 minutes, read-out: T1/2 Human
test_readout: log10(half-life at 5 μM) (log10 of the value in min)
// stored as log10 of half-life at 5 μM expressed in min

compound	log10(half-life at 5 μM)
COc1ccc(C2(NO)C(=O)N(C)N=C2C)cc1 (stereo not shown)	1.54
CO/N=C(\C)C1(NO)C(=O)N(c2ccccc2)N=C1OC (stereo not shown)	0.95
CN1N=C(c2ccc(S(=O)(=O)N3CCOCC3)cc2)C(C)(NO)C1=O (stereo not shown)	1.66
CN1N=C(c2ccc(S(C)(=O)=O)c(Cl)c2)C(C)(NO)C1=O (stereo not shown)	1.49
C/C(=N\Oc1ccc(Br)cc1)C1(NO)C(=O)N(C)N=C1C(C)(C)C (stereo not shown)	0.70

Recorded log10(half-life at 5 μM) (compound Cc1cc(C2=NN(C)C(=O)C2(C)NO)ccc1[S+](C)[O-] (stereo not shown) ): 1.78

Recorded log10(half-life at 5 μM) (compound Cc1cc(C2=NN(C)C(=O)C2(C)NO)ccc1S(C)(=O)=O (stereo not shown) ): 1.73

----------
assay: In vitro plasma stability, dog plasma; format: in vitro ADME; conditions: male, pH 7.4, 5 μM, 37° C., sampling 0-360 minutes, read-out: T1/2 Dog
Decide by half-life at 5 μM: equal to or exceeding 30 min means true, less means false.

compound	label_class
CN1N=C(c2ccc(Cl)cc2)C(C)(NO)C1=O (stereo not drawn)	true

Next item in the queue.
Ask: Reported half-life at 5 μM at or above 30 min? CN1N=C(c2ccc(S(C)(=O)=O)c(S(C)(=O)=O)c2)C(C)(NO)C1=O (stereo not drawn)
Result: true

----------
Listed molecules paired with reported log10 half-life at 5 μM
assay: In vitro plasma stability, dog plasma; format: in vitro ADME; settings: male, pH 7.4, 5 μM, 37° C., sampling 0-360 minutes, read-out: T1/2 Dog
// stored as log10 of half-life at 5 μM expressed in min

molecule	reported
C/C(=N\Oc1ccc(Br)cc1)C1(NO)C(=O)N(C)N=C1C(C)(C)C (centres unmarked)	1.38
CN1N=C(c2ccc(OC(F)(F)F)cc2)C(C)(NO)C1=O (centres unmarked)	2.18
CC1=NN(C)C(=O)C1(NO)c1ccccc1 (centres unmarked)	1.08
CC1=NN(c2ccc(S(C)(=O)=O)cc2)C(=O)C1(C)NO (centres unmarked)	2.00

Recorded log10 half-life at 5 μM (molecule CC(C)S(=O)(=O)c1ccc(C2=NN(C)C(=O)C2(C)NO)cc1 (centres unmarked) ): 1.62
